Values were extracted from patent US20190038714A1.

experiment: Cytotoxicity in normal cell line (MTT); assay type: cell-based, human; conditions: human, HaCaT cells (keratinocyte cell line); HaCaT; peptide 400 μM; 24 hours; MTT; read-out: Cell survival ability %
Ends that are not written are not given here.
# key: entry, value: viability at 24 h, 400 µM
Give your result in % as a bare value.

[
  {
    "substance": "FLRFIGSVKHGKGHLVHHIGVAL-NH2 [CSP-4]",
    "viability at 24 h, 400 µM [%]": 88
  }
]

Switching to the query record.
Prompt: Please report the recorded viability at 24 h, 400 µM for FLRFIGSVIHGIGHLVHHIGVAL-NH2 [Clavaspirin] .
Completion: 0
